Molecular target: Potassium voltage-gated channel subfamily A member 5 (Homo sapiens, UniProt P22460)
Sequence (P22460 whole entry): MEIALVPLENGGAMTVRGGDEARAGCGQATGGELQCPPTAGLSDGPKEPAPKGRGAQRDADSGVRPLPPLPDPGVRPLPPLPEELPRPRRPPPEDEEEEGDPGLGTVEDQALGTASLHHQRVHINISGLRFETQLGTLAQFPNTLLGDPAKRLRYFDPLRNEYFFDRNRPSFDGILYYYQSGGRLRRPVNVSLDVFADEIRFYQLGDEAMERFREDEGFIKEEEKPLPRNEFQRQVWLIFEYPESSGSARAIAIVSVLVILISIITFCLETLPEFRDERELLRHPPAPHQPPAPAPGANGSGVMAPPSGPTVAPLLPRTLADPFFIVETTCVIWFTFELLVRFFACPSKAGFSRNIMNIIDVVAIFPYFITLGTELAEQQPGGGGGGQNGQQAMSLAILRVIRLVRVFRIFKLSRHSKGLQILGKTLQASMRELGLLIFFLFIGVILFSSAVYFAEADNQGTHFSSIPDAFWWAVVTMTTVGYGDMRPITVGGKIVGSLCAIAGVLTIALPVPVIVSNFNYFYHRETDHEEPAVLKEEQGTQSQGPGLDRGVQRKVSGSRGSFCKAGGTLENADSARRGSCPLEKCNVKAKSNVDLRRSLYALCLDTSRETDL
Experiment: Inhibition of Kv1.5 expressed in LTK- cells by whole cell patch clamp assay at 1uM
Assay type: functional, cell-based
MEASURED ENDPOINT: inhibition (%)

Solved cases below.
CCc1c(C)[nH]c2c1/C(=N/NC(=O)Nc1ccccc1)CCC2
85
CCc1c(C)[nH]c2c1/C(=N/N(C)C(=O)Nc1ccc(SC)cc1)CCC2
78
CCc1[nH]c2c(c1CC)/C(=N/NC(=O)Nc1ccccc1)CCC2
56
CCc1c2c(n(C)c1CC)CCC/C2=N\N(C)C(=O)Nc1ccc(Cl)cc1
90
CCc1c(C)[nH]c2c1/C(=N/NC(=O)Nc1cccc(C3CCCN3)c1)CCC2 (stereo not given)
60
CCc1c(C)[nH]c2c1/C(=N/NC(=S)Nc1ccc(Cl)cc1)CCC2
71
CCc1c(C)[nH]c2c1/C(=N/N(C)C(=O)Nc1ccccc1)CCC2
65
CCc1c(C)[nH]c2c1/C(=N/NC(=O)Nc1ccc(SC)cc1)CCC2
80

[I] O=C(N/N=C1\CCCc2[nH]ccc21)Nc1ccc(Cl)cc1
[II] CCc1[nH]c2c(c1CC)/C(=N/NC(=O)Nc1cccc(SC)c1)CCC2
Would you mind telling me which has the lower recorded inhibition between I and II ? State the label of the item chosen.
I
(I: 28%, II: 67%)

----------
Molecular target: Potassium voltage-gated channel subfamily A member 5 (Homo sapiens, UniProt P22460)
Assay: Inhibition of Kv1.5 expressed in LTK- cells by whole cell patch clamp assay
pIC50: −log10 of the molar value.
MEASURED ENDPOINT: pIC50

// known answers, use as guide
CCc1c(C)[nH]c2c1/C(=N/NC(=O)Nc1ccccc1)CCC2
6.89
CCc1c(C)[nH]c2c1/C(=N/N(C)C(=O)Nc1ccc(Cl)cc1)CCC2
6.89

[P] O=C(N/N=C1\CCCc2[nH]ccc21)Nc1ccc(Cl)cc1
[Q] CCc1c(C)[nH]c2c1/C(=N/NC(=O)Nc1ccc(Cl)cc1)CCC2
Sorting by pIC50 in descending order, would P or Q appear first? Mark your selection by writing its label.
Q
(Q: 6.36, P: 5.25)

----------
Target: Potassium voltage-gated channel subfamily A member 5 (Homo sapiens, UniProt P22460)
Experiment: Inhibition of Kv1.5 expressed in LTK- cells by whole cell patch clamp assay at 1uM
Assay type: functional, cell-based
MEASURED ENDPOINT: inhibition

Here is how some molecules turned out for inhibition.
Cc1[nH]c2c(c1C)/C(=N/NC(=O)Nc1ccccc1)CCC2
37%
CCc1c(C)[nH]c2c1/C(=N/NC(=O)Nc1ccc(Cl)cc1)CCC2
65%
CCc1c(C)[nH]c2c1/C(=N/N(C)C(=O)Nc1cccc(Cl)c1)CCC2
89%

As a next step, examine the molecule that follows.
# lookup: inhibition of CCc1c(C)[nH]c2c1/C(=N/N(C)C(=O)Nc1ccc(C(C)=O)cc1)CCC2
86%

----------
Molecular target: Potassium voltage-gated channel subfamily A member 5 (Homo sapiens)
Assay: Inhibition of Kv1.5 expressed in LTK- cells by whole cell patch clamp assay
pIC50: −log10 of the molar value.
MEASURED ENDPOINT: pIC50

Illustrative cases are given below, each with its answer.
Cc1[nH]c2c(c1C)/C(=N/NC(=O)Nc1ccc(Cl)cc1)CCC2
6.43
CCc1c(C)[nH]c2c1/C(=N/NC(=O)Nc1ccc(SC)cc1)CCC2
6.55

[I] CCc1c(C)[nH]c2c1/C(=N/NC(=S)Nc1cccc(C(F)(F)F)c1)CCC2
[II] CCc1c2c(n(C)c1CC)CCC/C2=N\N(C)C(=O)Nc1ccc(C(C)=O)cc1
[III] CCc1c(C)[nH]c2c1/C(=N/NC(=O)Nc1cccc(C3CCCN3)c1)CCC2 (stereo not given)
Which order do these items take when sorted by rising pIC50? List them. # answer = labels listed in requested order
III, II, I
(III: 6.12, II: 6.43, I: 6.70)
